Test system: MS2 coat protein
Assay: apparent KD of MS2 coat protein; designed switch direction (-1 OFF switch, 1 ON switch): -1; higher = weaker reporter binding
Details: Eterna round: R95; input ligand: microRNA oligo, concentration not stated
Kindly state apparent KD of MS2 coat protein for each of the entries shown.
Give bare numbers, in nM.

Worked examples follow.
{"sequenceText": "UAGAAUCGAGGAUAUACAUGAGGAUCACCCAUGUGUGGCCAUUUGGUGUGGUCGUCAGGUAGAAGGCGAUUACA [Exclusion 3 - Mod of Jieux's Gilly Gone Silly 23 v.5] (puzzle: Exclusion 3)", "assayTarget": "MS2 coat protein", "measurementType": "apparent KD of MS2 coat protein", "numericValue": 141}
{"sequenceText": "GUGAGGUAAGGAUAUAGUAGUGAAGGUAAAAUAUGAGAAUGCUAGAAGGUACAUGAGGAUCACCCAUGUUAGGG [JR_Exclu4_Sub088] (puzzle: Exclusion 4)", "assayTarget": "MS2 coat protein", "measurementType": "apparent KD of MS2 coat protein", "numericValue": 146}
{"sequenceText": "AAUACAAGUAAGAUCCUAAACAUGAGGAUCACCCAUGUGCUCGUCUUAUAAAGUACUAUCACGAAAGUGAUAGUACA [Sensor 3, v1 - 66] (puzzle: Sensor v3, turn-off variant 1)", "assayTarget": "MS2 coat protein", "measurementType": "apparent KD of MS2 coat protein", "numericValue": 314}
{"sequenceText": "CGUACUGAAGUGAGGAUAUUGUCUCGGAUACGAAACAAGAAGGCACAUGAGGAUCACCCAUGUUAACAGUACGA [Malc #30 mod 9] (puzzle: Brourd's mod of Exclusion 4)", "assayTarget": "MS2 coat protein", "measurementType": "apparent KD of MS2 coat protein", "numericValue": 19.2}

// each sequence listed below needs its apparent KD of MS2 coat protein
1. AUGAAGUAAGGAUAUACAUGAGGAUCACCCAUGUAAAGAAAAGUAAUGGGAGUAAGAAGUAGAAGGUACGAGAA [JR_Exclu3_Sub061] (puzzle: Exclusion 3)
2. CAUACACAUGAGGAUCACCCAUGUGAGGAUAUGCGUACGUUGUCCGUAGGCGACGUGCGCAGAAGGCGCGUGUU [JL-ex1-3.15 Eli mod] (puzzle: Exclusion 1)
3. AGUACUAACACGAAAGUGUUAGUCCAAUAAGCUUGUGAAACAUGAGGAUCACCCAUGUCCUCAUAAGCUCGUCUUAU [salish99_TOv2_r3_038] (puzzle: Sensor v3, turn-off variant 2)

Found:
[48.2, 42.5, 454]

// each sequence listed below needs its apparent KD of MS2 coat protein
1. CAGGAUAGAGGAUAUACAUAGAUACAGAUUCGUGUAAUCCUACAUGAGGAUCACCCAUGUAGAAGGCUAUCCUG [Fiskers Ex 2 - 20] (puzzle: Exclusion 2)
2. GGAUCCUGGGUCAGGAUAUGCUGACAGCUUUGUCAGCAGAAGGGACAUGAGGAUCACCCAUGUGCUCGGUUUUG [Magic-20] (puzzle: Brourd's mod of Exclusion 4)
3. ACCCAACAUGAGGAUCACCCAUGUCAGGAUAUCCAAGCGAAAGCAAAAGCGAAAGCAAGGAGAAGGGACAGAGG [ChP 04-04-2015 #6] (puzzle: Exclusion 1)
4. GGUGCGUCUGUGAGGAUAUGCUGGUCCUUGGCUCGGCAGAAGGCACAUGAGGAUCACCCAUGUGGUGUCGUGCC [salish99_Bmod_ex4_058] (puzzle: Brourd's mod of Exclusion 4)
5. AGAUCCUGAGUCAGGAUAUAGAGACGGUAGUCGGGCUAGAAGGGACAUGAGGAUCACCCAUGUGGGUUCGGGCC [Zarareso] (puzzle: Brourd's mod of Exclusion 4)
6. AAUAAUAAGGAGGAUAUCGUAUGCGAAAGCAUACGAGAAGGCCUAACAUGAGGAUCACCCAUGUUCCUCAAUAA [Mat - Exclusion 6 - Eli Mod - D55] (puzzle: Exclusion 6)

Found:
13.2
9.68
90
16.7
12.8
254

Lookup: Find the recorded apparent KD of MS2 coat protein belonging to GCCAGAGCAGGAUAUUCAAAACCUCACAUGAGGAUCACCCAUGUGGCCGAAAGGCCGGGAGGAGAAGGGCUCUGGC [Fiskers Ex 5 - 1] (puzzle: Exclusion 5) and report it.
Found: 13.3
